experiment.summary: Bi-directional Caco-2 permeability
Format: in vitro ADME
condition.summary: human, Caco-2, Caco-2, BA direction; read-out: BA Recovery %
The entries below are paired with their reported recovery at 90 min.

{"compound": "CC(C)OC(=O)NC1CCC(c2ncc(-c3ccc(NC(=O)OC4COC4)cc3S(=O)(=O)NC(C)(C)C)s2)CC1 (stereo not drawn)", "recovery at 90 min, %": 82.3}
{"compound": "CC(C)OC(=O)Nc1ccc(-c2cnc(C34CCC(NC(=O)OC(C)C)(CC3)CC4)s2)c(S(=O)(=O)NC(C)(C)C)c1", "recovery at 90 min, %": 81.9}
{"compound": "CC(C)OC(=O)Nc1ccc(-c2cnc([C@H]3CC[C@H](NC(=O)OC(C)(C)C)CC3)s2)c(S(=O)(=O)NC(C)(C)C)c1", "recovery at 90 min, %": 69.4}
{"compound": "C[C@@H](NC(=O)Nc1ccc(-c2cnc(C3CCC(NC(=O)OC4COC4)CC3)s2)c(S(=O)(=O)NC(C)(C)C)c1)c1ccccc1 (stereo partly drawn)", "recovery at 90 min, %": 91.7}
{"compound": "CC(C)OC(=O)N[C@H]1CC[C@H](c2ncc(-c3ccc(NC(=O)OC[C@@H]4CCCN4C)cc3S(=O)(=O)NC(C)(C)C)s2)CC1", "recovery at 90 min, %": 108}
{"compound": "CC(C)OC(=O)Nc1ccc(-c2sc(C3CCC(NC(=O)OC(C)C)CC3)nc2F)c(S(=O)(=O)NC(C)(C)C)c1 (stereo not drawn)", "recovery at 90 min, %": 83.5}
